These data points were gathered from patent US20030068675.

TARGET SYSTEM: T1, ZFP SBS#1084 (synthetic)
T1 chain: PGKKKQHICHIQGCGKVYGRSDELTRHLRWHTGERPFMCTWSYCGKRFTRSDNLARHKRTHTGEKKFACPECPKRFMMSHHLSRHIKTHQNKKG
ASSAY COMMENT: EMSA
MEASUREMENT CONTEXT: tags: MBP fusion
METRIC: Kd (pM)
State the answer as a number, implicitly in pM.

Quick one: Kd of GGTGAGGCG (dsDNA) DNA 1: GGTGAGGCG DNA 2: CGCCTCACC ? 500
